Target: T1, cynomolgus monkey serum albumin (cynomolgus monkey, UniProt A2V9Z4 25-608)
T1 construct: Bought protein, immobilized on a CM5 chip by amine coupling; also called Cyno SA
Assay: SPR (Biacore 8K), albumin immobilized on CM5 chip, 25 C, 1:1 kinetic fit
Listing of recorded Kd by entry.
Dear colleague, please return just the value in nM, with no unit written.

BINDER	Kd [nM]
RLN Analog 14 (other, Single-chain fusion: VHH - (PGPQ)8 L1 - RLN2 A chain (desA1-4) - L2 - RLN2 B chain (desB1)) EVQLLESGGGLVQPGGSLRLSCAASGRYIDETAVAWFRQAPGKGREFVAGIGGGVDITYYADSVKGRFTISRDNSKNTLYLQMNSLRPEDTAVYYCAARPGRPLITSKVADLYPYWGQGTLVTVSSPGPQPGPQPGPQPGPQPGPQPGPQPGPQPGPQALANKCCHVGCTKRSLARFCGGGSGGSGGGSWMEEVIKLCGRELVRAQIAICGMSTWS	0.61

Exercise: // query Kd value for entry RLN Analog 8 (other, Single-chain fusion: VHH - (PGPQ)8 L1 - RLN2 B chain (desB1) - L2 - RLN2 A chain) EVQLLESGGGLVQPGGSLRLSCAASGRYIDETAVAWFRQAPGKGREFVAGIGGGVDITYYADSVKGRFTISRDNSKNTLYLQMNSLRPEDTAVYYCAARPGRPLITSKVADLYPYWGQGTLVTVSSPGPQPGPQPGPQPGPQPGPQPGPQPGPQPGPQSWMEEVIKLCGRELVRAQIAICGMSTWSGGGSGGSGGGQLYSALANKCCHVGCTKRSLARFC
Solution: 0.32
